test: Plasma pharmacokinetics of DT2216 in patients, phase 1 dose escalation; type: in vivo, human; details: human, plasma, iv, 0.4 mg/kg, Cycle 1 Day 1, 0.4 mg/kg IV, plasma, median (min, max), N = 4
measurement_name: Tmax
Write your answer as a measured quantity: the number, then the unit.

Request: Given the molecule Cc1ncsc1-c1ccc([C@H](C)NC(=O)[C@@H]2C[C@@H](O)CN2C(=O)[C@@H](NC(=O)CCCCCC(=O)N2CCN(CC[C@H](CSc3ccccc3)Nc3ccc(S(=O)(=O)NC(=O)c4ccc(N5CCN(CC6=C(c7ccc(Cl)cc7)CCC(C)(C)C6)CC5)cc4)cc3S(=O)(=O)C(F)(F)F)CC2)C(C)(C)C)cc1 [DT2216] , what is its reported Tmax?
Result: 45 min
